- targetUnderTest: FLJ41991-derived protein (Homo sapiens, UniProt P57764, E293G)
- Construct: His-tag (N); made in house; host or cells: Escherichia coli BL21star(DE3)pLysS (pDEST17)
- Sequence (P57764 265-484 E293G): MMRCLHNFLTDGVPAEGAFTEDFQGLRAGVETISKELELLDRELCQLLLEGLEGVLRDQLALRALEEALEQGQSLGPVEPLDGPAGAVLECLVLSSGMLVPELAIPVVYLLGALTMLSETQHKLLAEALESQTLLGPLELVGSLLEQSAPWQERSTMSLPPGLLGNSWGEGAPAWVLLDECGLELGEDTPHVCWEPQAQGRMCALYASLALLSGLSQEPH
- assayProcedure: SEC/MS interaction analysis, FLJ41991-derived protein (GSDMDC1)
- Assay type: binding
- testConditions: compound 12.5 μM, protein 25 μM
- Protocol: To analyze the interactions between commonly used drugs and proteins expressed from human full-length cDNA clones while keeping both the proteins and the compounds in non-modified, non-immobilized state, size exclusion chromatography (SEC) and mass analysis were used in combination. The specific procedures are shown below. […] Protein concentrations were measured using BCA Protein Assay (PIERCE), in consideration of the purity calculated by SDS-PAGE. […]
spectrum intensity of the compound in the SEC spin column filtrate listing for selected compounds.
experimentalEndpoint: spectrum intensity of the compound in the SEC spin column filtrate

[[record]]
compound = "CN1[C@@H]2CC[C@H]1C[C@@H](OC(c1ccccc1)c1ccccc1)C2"
obsvalue = 489071

[[record]]
compound = "OCCN1CCN(CCCN2c3ccccc3Sc3ccc(Cl)cc32)CC1"
obsvalue = 314285

[[record]]
compound = "COc1ccc(CCN2CCC(Nc3nc4ccccc4n3Cc3ccc(F)cc3)CC2)cc1"
obsvalue = 908771

[[record]]
compound = "CCN(CC)CCCC(C)Nc1c2ccc(Cl)cc2nc2ccc(OC)cc12 (centres unmarked)"
obsvalue = 439131

[[record]]
compound = "OC(c1cc(C(F)(F)F)nc2c(C(F)(F)F)cccc12)C1CCCCN1 (centres unmarked)"
obsvalue = 453818


----------
- targetUnderTest: FLJ41991-derived protein (Homo sapiens, UniProt P57764, E293G)
- Construct: His-tag (N); made in house; host or cells: Escherichia coli BL21star(DE3)pLysS (pDEST17)
- assayProcedure: SEC/MS interaction analysis, FLJ41991-derived protein (GSDMDC1)
- Assay type: binding
- testConditions: compound 25 μM, protein 25 μM
Reported spectrum intensity of the compound in the SEC spin column filtrate is given for each of the following molecules.
experimentalEndpoint: spectrum intensity of the compound in the SEC spin column filtrate

[[record]]
molecule = "COc1ccc(CCN2CCC(Nc3nc4ccccc4n3Cc3ccc(F)cc3)CC2)cc1 [astemizole]"
obsvalue = 2056843

[[record]]
molecule = "OCCN1CCN(CCCN2c3ccccc3Sc3ccc(Cl)cc32)CC1 [perphenazine]"
obsvalue = 799962

[[record]]
molecule = "O=C(c1ccc(OCCN2CCCCC2)cc1)c1c(-c2ccc(O)cc2)sc2cc(O)ccc12 [raloxifene]"
obsvalue = 1312562

[[record]]
molecule = "CN1[C@@H]2CC[C@H]1C[C@@H](OC(c1ccccc1)c1ccccc1)C2 [benztropine]"
obsvalue = 1352077

[[record]]
molecule = "CC(C)(C)c1ccc(C(O)CCCN2CCC(C(O)(c3ccccc3)c3ccccc3)CC2)cc1 (stereo not shown) [terfenadine]"
obsvalue = 4190413

[[record]]
molecule = "OC(c1cc(C(F)(F)F)nc2c(C(F)(F)F)cccc12)C1CCCCN1 (stereo not shown) [mefloquine]"
obsvalue = 1788847

[[record]]
molecule = "CN(C)C(=O)C(CCN1CCC(O)(c2ccc(Cl)cc2)CC1)(c1ccccc1)c1ccccc1 [loperamide]"
obsvalue = 4462655

[[record]]
molecule = "CCN(CC)CCCC(C)Nc1c2ccc(Cl)cc2nc2ccc(OC)cc12 (stereo not shown) [quinacrine]"
obsvalue = 457713

[[record]]
molecule = "CN(C)CC/C=C1/c2ccccc2Sc2ccc(Cl)cc21 [chlorprothixene]"
obsvalue = 490640

[[record]]
molecule = "OCCN1CCN(CCCN2c3ccccc3Sc3ccc(C(F)(F)F)cc32)CC1 [fluphenazine]"
obsvalue = 1778376


// data source = patent US20090143285A1
